tested on: Plasmodium falciparum; assay: GSK_TCMDC: Inhibition of Plasmodium falciparum 3D7 in whole red blood cells, using parasite LDH activity as an index of growth. Test compounds present at 2uM; type: functional
# Inhibition annotations
The reply should contain only the number, in %.

compound: NC(=O)c1ccsc1NC(=O)CNC(c1ccccc1)c1ccc(Cl)cc1 (stereo not drawn)
experimental readout: Inhibition
units symbol: %
result value: 83
--
compound: CNCc1cccc(-c2ccc3ccnc(N)c3c2)c1
experimental readout: Inhibition
units symbol: %
result value: 100
--
compound: CCOC(=O)N(C)/N=C/[C@H](CCc1ccccc1)NC(=O)[C@H](CC(C)C)NC(=O)c1cc2cccc(OC)c2o1
experimental readout: Inhibition
units symbol: %
result value: 86

I have this compound here, "CCCN(CCC)S(=O)(=O)c1ccc(C(=O)Nc2nc3ccc(-c4cc(=O)[nH]c(Nc5ccccc5Cl)n4)cc3[nH]2)cc1" , and I need its recorded Inhibition.
100

Field entry: "CN1CCN(c2ccnc3ccc(NC(=O)Cc4ccc(OCc5ccccc5)cc4)cc23)CC1"
100

Field entry: "COc1ccc(C=NNc2cc(C)nc3ccc(OC)cc23)c(OC)c1"
100
